assayed.target: AMPKα1β1γ1 (Homo sapiens, UniProt Q13131+Q9Y478)
Construct: purchased CARNA 02-113
Sequence (Q13131 whole entry): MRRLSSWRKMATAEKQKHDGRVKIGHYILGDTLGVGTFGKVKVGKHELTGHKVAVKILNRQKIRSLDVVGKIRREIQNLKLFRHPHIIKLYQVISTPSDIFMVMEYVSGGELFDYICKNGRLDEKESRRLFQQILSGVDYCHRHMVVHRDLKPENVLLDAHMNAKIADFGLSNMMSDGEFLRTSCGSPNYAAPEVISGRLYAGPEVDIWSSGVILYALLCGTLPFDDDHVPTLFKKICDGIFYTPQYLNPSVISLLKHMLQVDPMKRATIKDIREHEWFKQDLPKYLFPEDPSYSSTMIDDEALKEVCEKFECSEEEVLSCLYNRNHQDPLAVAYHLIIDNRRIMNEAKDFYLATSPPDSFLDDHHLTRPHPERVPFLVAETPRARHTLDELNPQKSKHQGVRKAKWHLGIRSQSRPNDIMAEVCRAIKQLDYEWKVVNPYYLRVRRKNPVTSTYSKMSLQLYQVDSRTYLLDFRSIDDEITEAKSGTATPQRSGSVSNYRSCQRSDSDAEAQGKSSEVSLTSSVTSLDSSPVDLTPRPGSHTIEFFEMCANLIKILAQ
Sequence (Q9Y478 whole entry): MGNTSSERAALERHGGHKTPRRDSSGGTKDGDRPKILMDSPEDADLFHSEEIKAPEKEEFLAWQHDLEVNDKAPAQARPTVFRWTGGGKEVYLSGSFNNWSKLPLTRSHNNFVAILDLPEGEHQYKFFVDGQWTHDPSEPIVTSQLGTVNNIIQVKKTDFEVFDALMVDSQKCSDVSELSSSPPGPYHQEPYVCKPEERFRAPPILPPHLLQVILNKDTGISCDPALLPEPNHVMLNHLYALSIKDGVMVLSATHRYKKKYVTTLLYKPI
Sequence (P54619 whole entry partner): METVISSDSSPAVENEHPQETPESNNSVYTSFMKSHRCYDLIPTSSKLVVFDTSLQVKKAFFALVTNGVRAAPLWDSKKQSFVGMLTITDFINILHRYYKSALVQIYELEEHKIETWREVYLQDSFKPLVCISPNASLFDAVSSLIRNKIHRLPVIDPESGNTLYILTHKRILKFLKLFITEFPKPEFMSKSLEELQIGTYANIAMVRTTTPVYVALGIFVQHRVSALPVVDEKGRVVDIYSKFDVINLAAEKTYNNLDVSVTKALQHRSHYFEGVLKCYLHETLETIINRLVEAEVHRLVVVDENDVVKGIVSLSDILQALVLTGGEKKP
protocol.description: In vitro assay for AMPK (α1β1γ1) enzyme agonist activity (TR-FRET)
Type: biochemical
assay.conditions: 1 h; activity of 1 µM A769662 set as 100%; read-out: Top value (%)

sample.smiles: O=C(Nc1cc(Cl)c(C#CC2(O)CCC2)s1)O[C@@H]1CO[C@H]2[C@@H]1OC[C@H]2O
Emax: 70 to 100%
--
sample.smiles: O=C(Nc1cc(-c2ccc(C3(CO)CC3)cc2)c(Cl)s1)O[C@@H]1CO[C@H]2[C@@H]1OC[C@H]2O
Emax: 200 to 300%
--
sample.smiles: O=C(Nc1cc(Cl)c(-c2ccc(-c3ccccc3O)cc2)s1)O[C@@H]1CO[C@H]2[C@@H]1OC[C@H]2O
Emax: 200 to 300%
--
sample.smiles: O=C(Nc1cc(Cl)c(-c2ccc(C3(CO)CC3)cc2)s1)O[C@@H]1CO[C@H]2[C@@H]1OC[C@H]2O
Emax: 200 to 300%
--
sample.smiles: O=C(Nc1cc(Cl)c(-c2ccc(OCCCN3CCOCC3)cc2)s1)O[C@@H]1CO[C@H]2[C@@H]1OC[C@H]2O
Emax: ≥ 300%
--
sample.smiles: CCOC(=O)[C@H]1CC[C@H](OC(=O)Nc2cc(Cl)c(-c3ccc(C4(CO)CC4)cc3)s2)CC1
Emax: 70 to 100%
--
sample.smiles: O=C(Nc1cc(C2CC2)c(-c2ccc(C3(CO)CC3)cc2)s1)O[C@@H]1CO[C@H]2[C@@H]1OC[C@H]2O
Emax: 150 to 200%
--
sample.smiles: O=C(Nc1cc(Cl)c(-c2ccc(-c3ccccc3O)cc2)s1)OCCCO
Emax: 150 to 200%
--
sample.smiles: CCc1cc(NC(=O)O[C@@H]2CO[C@H]3[C@@H]2OC[C@H]3O)sc1-c1ccc(C2(CO)CC2)cc1
Emax: 100 to 150%
--
sample.smiles: Cn1ccc2cc(-c3sc(NC(=O)OCCCO)cc3Cl)ccc21
Emax: 70 to 100%
--
sample.smiles: O=C(Nc1cc(Cl)c(-c2ccc(C3(CO)CC3)cc2)s1)O[C@H]1CC[C@H](C(=O)O)CC1
Emax: 150 to 200%
--
sample.smiles: NCCCOc1ccc(-c2sc(NC(=O)O[C@@H]3CO[C@H]4[C@@H]3OC[C@H]4O)cc2Cl)cc1
Emax: 150 to 200%
--
sample.smiles: Cc1cc(NC(=O)O[C@@H]2CO[C@H]3[C@@H]2OC[C@H]3O)sc1-c1ccc(C2(CO)CC2)cc1
Emax: 200 to 300%
--
sample.smiles: NCCCc1ccc(-c2sc(NC(=O)O[C@@H]3CO[C@H]4[C@@H]3OC[C@H]4O)cc2Cl)cc1
Emax: 100 to 150%
--
sample.smiles: O=C(Nc1cc(Cl)c(C#Cc2ccccc2O)s1)O[C@@H]1CO[C@H]2[C@@H]1OC[C@H]2O
Emax: ≥ 300%
--
sample.smiles: CS(=O)(=O)c1ccc(-c2ccc(-c3sc(NC(=O)O[C@@H]4CO[C@H]5[C@@H]4OC[C@H]5O)cc3Cl)cc2)cc1
Emax: 150 to 200%
--
sample.smiles: O=C(Nc1cc(Cl)c(-c2ccc(C3(CO)CC3)cc2)s1)O[C@H]1CC[C@H](CO)CC1
Emax: 100 to 150%

* * *

assayed.target: AMPKα1β1γ1 (Homo sapiens, UniProt Q13131+Q9Y478)
Construct: purchased CARNA 02-113
protocol.description: In vitro assay for AMPK (α1β1γ1) enzyme agonist activity (TR-FRET)
Assay type: biochemical
assay.conditions: 1 h; activity of 1 µM A769662 set as 100%; read-out: Top value (%)
value.type: Emax

sample.smiles: O=C(Nc1cc(Cl)c(C#Cc2ccccc2)s1)O[C@@H]1CO[C@H]2[C@@H]1OC[C@H]2O
value: 200 to 300%
//
sample.smiles: COc1ccc(-c2sc(NC(=O)O[C@@H]3CO[C@H]4[C@@H]3OC[C@H]4O)cc2Cl)cc1
value: 200 to 300%
//
sample.smiles: O=C(Nc1cc(Cl)c(-c2ccc(C3(O)CCC3)cc2)s1)O[C@@H]1CO[C@H]2[C@@H]1OC[C@H]2O
value: 200 to 300%
//
sample.smiles: O=C(Nc1cc(Cl)c(-c2ccc(N3CCOCC3)cc2)s1)O[C@@H]1CO[C@H]2[C@@H]1OC[C@H]2O
value: 150 to 200%
//
sample.smiles: O=C(Nc1cc(Cl)c(-c2ccc(N3CCCC3)cc2)s1)O[C@@H]1CO[C@H]2[C@@H]1OC[C@H]2O
value: 70 to 100%
//
sample.smiles: Cn1ccc2cc(-c3sc(NC(=O)O[C@@H]4CO[C@H]5[C@@H]4OC[C@H]5O)cc3Cl)ccc21
value: 150 to 200%
//
sample.smiles: O=C(Nc1cc(Cl)c(-c2ccc3c(ccn3C3CC3)c2)s1)O[C@@H]1CO[C@H]2[C@@H]1OC[C@H]2O
value: 150 to 200%

* * *

assayed.target: AMPKα1β1γ1 (Homo sapiens, UniProt Q13131+Q9Y478)
Construct: purchased CARNA 02-113
protocol.description: In vitro assay for AMPK (α1β1γ1) enzyme agonist activity (TR-FRET)
Assay type: biochemical
assay.conditions: 1 h; activity of 1 µM A769662 set as 100%; read-out: Top value (%)

sample.smiles: O=C(Nc1cc(-c2ccc(C3(CO)CC3)cc2)cs1)O[C@@H]1CO[C@H]2[C@@H]1OC[C@H]2O
Emax: 150 to 200%
//
sample.smiles: O=C(Nc1csc(-c2ccc(C3(CO)CC3)cc2)c1)O[C@@H]1CO[C@H]2[C@@H]1OC[C@H]2O
Emax: 200 to 300%
//
sample.smiles: O=C(Nc1cc(Cl)c(-c2ccc(-c3ccccc3)cc2)s1)O[C@@H]1CO[C@H]2[C@@H]1OC[C@H]2O
Emax: 150 to 200%
//
sample.smiles: CN1CCC(c2ccc(-c3sc(NC(=O)O[C@@H]4CO[C@H]5[C@@H]4OC[C@H]5O)cc3Cl)cc2)CC1
Emax: 150 to 200%
